# TESTED_ON: Recombinant human JAK2 kinase domain protein (Residues 812-1132) (Homo sapiens)
# Sequence (O60674 812-1132): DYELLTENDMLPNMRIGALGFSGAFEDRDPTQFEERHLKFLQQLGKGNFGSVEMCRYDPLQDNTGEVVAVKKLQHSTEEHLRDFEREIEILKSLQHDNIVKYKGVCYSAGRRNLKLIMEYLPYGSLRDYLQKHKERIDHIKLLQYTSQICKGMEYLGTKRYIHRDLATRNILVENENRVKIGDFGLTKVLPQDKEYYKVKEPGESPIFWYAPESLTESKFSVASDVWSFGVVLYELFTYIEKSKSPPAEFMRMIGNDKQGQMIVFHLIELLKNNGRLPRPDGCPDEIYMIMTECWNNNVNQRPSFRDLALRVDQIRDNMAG
# PROTOCOL_DESCRIPTION: JAK2 biochemical assay (microfluidic mobility shift, peptide phosphorylation)
# CONDITION_SET: Enzyme JAK2 Ki (nM), 25 μM ATP, 0.2 nM total JAK2
ATTRIBUTE_MEASURED: Ki (nM)
// units = nM; emit number, no label

compound "Cn1cc(NC(=O)c2cnn3cccnc23)c(-c2cc(S(=O)(=O)CCO)ccc2OC(F)F)n1" , Ki observed: 0.19

compound "CN(C)S(=O)(=O)c1ccc(OC(F)F)c(-c2nn(C)cc2NC(=O)c2cnn3cccnc23)c1" , Ki observed: 0.14

compound "Cn1cc(NC(=O)c2cnn3cccnc23)c(-c2cc(S(=O)(=O)C3CCC3)ccc2OC(F)F)n1" , Ki observed: 0.2

compound CC(O)C(C)S(=O)(=O)c1ccc(OC(F)F)c(-c2nn(C)cc2NC(=O)c2cnn3cccnc23)c1 (single isomer, unassigned) [Example 71] , Ki observed: 0.46

compound "Cn1cc(NC(=O)c2cnn3cccnc23)c(-c2cc(S(=O)(=O)N3CCC3)ccc2OC(F)F)n1" , Ki observed: 0.16

compound CN1CCC[C@@H]1Cn1cc(NC(=O)c2cnn3cccnc23)c(-c2cc(S(=O)(=O)C3CC3)ccc2OC(F)F)n1 (racemic) , Ki observed: 2.5

compound Cn1cc(NC(=O)c2cnn3cccnc23)c(-c2cc(S(=O)(=O)C3CCCNC3)ccc2OC(F)F)n1 (single isomer, unassigned) [Example 37] , Ki observed: 0.54
